Where a name gives a salt, the structure may show the parent alone.

| molecule | melting point |
| --- | --- |
| CC(C)C(NC(=O)OCc1ccccc1)C(=O)Nc1ccc([C@@H]2C[C@H]2N)cc1 (relative stereo) (as salt: hydrochloride) [Compound 6a] | 168 to 170 °C |
| Cl.NC1CC1c1ccc(NC(=O)C(Cc2ccccc2)NC(=O)OCc2ccc(Br)cc2)cc1 (stereo not shown) [Compound 7] | 220 to 222 °C |
| CC(C)CC(NC(=O)OCc1ccccc1)C(=O)Nc1ccc([C@@H]2C[C@H]2N)cc1 (relative stereo) (as salt: hydrochloride) [Compound 6b] | 158 to 160 °C |
| Cl.NC1CC1c1ccc(NC(=O)C(Cc2ccccc2)NC(=O)NCc2ccccc2)cc1 (stereo not shown) [Compound 16] | 153 to 155 °C |

###

Biological target: Human recombinant MAO B (Homo sapiens (Human), UniProt P27338)
Sequence (P27338 whole entry): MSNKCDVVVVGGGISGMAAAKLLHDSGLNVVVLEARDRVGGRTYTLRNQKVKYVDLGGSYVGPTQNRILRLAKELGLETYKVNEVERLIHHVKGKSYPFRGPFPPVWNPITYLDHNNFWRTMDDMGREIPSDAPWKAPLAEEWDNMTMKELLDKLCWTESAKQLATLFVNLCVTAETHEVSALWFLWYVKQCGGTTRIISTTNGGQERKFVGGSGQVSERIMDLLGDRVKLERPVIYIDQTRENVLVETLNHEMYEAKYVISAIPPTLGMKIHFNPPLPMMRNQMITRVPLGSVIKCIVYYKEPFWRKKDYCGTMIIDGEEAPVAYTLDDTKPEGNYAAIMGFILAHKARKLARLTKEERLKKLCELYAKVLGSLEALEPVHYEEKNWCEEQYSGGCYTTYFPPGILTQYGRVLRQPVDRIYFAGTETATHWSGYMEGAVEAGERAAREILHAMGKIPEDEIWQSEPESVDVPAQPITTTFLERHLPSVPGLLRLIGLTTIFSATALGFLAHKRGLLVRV
Experiment: MAO B inhibition, peroxidase-coupled assay with benzylamine as substrate
Assay type: biochemical

| compound | MAO B inhibition |
| --- | --- |
| CC(C)C(NC(=O)OCc1ccccc1)C(=O)Nc1ccc([C@@H]2C[C@H]2N)cc1 (relative stereo) | − |
| CC(C)CC(NC(=O)OCc1ccccc1)C(=O)Nc1ccc([C@@H]2C[C@H]2N)cc1 (relative stereo) | − |
| Cl.NC1CC1c1ccc(NC(=O)C(Cc2ccccc2)NC(=O)OCc2ccccc2)cc1 (stereo not drawn) | − |
| Cl.NC1CC1c1ccc(NC(=O)C(Cc2ccccc2)NC(=O)NCc2ccccc2)cc1 (stereo not drawn) | + |
| Cl.NC1CC1c1ccc(NC(=O)C(Cc2ccccc2)NC(=O)OCc2ccc(Br)cc2)cc1 (stereo not drawn) | − |
| CN(C(=O)C(Cc1ccccc1)NC(=O)OCc1ccccc1)c1ccc(C2CC2N)cc1.Cl (stereo not drawn) | − |

###

Molecular target: Human recombinant MAO A (Homo sapiens (Human))
Sequence (P21397 whole entry, looked up): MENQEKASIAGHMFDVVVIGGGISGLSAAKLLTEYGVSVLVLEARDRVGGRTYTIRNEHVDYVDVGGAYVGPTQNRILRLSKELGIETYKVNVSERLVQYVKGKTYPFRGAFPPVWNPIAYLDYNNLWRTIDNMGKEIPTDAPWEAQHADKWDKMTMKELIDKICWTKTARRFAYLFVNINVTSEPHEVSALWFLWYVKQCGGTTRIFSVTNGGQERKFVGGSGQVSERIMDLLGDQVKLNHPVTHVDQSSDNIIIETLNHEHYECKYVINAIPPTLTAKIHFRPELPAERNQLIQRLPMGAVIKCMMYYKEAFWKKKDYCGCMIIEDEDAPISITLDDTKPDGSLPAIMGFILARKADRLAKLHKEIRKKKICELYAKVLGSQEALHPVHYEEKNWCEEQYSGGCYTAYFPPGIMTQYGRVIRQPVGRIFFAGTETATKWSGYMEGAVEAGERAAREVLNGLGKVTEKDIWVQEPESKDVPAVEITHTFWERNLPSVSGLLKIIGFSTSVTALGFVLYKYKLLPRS
Assay: MAO A inhibition, peroxidase-coupled assay with kynuramine as substrate
Type: biochemical

| compound | experimental.target | MAO A inhibition |
| --- | --- | --- |
| CC(C)C(NC(=O)OCc1ccccc1)C(=O)Nc1ccc([C@@H]2C[C@H]2N)cc1 (relative stereo) [Compound 6a] | Human recombinant MAO A (Homo sapiens (Human)) | + |
| CN(C(=O)C(Cc1ccccc1)NC(=O)OCc1ccccc1)c1ccc(C2CC2N)cc1.Cl (stereo not shown) [Compound 12] | Human recombinant MAO A (Homo sapiens (Human)) | + |
| Cl.NC1CC1c1ccc(NC(=O)C(Cc2ccccc2)NC(=O)NCc2ccccc2)cc1 (stereo not shown) [Compound 16] | Human recombinant MAO A (Homo sapiens (Human)) | + |
| CC(C)CC(NC(=O)OCc1ccccc1)C(=O)Nc1ccc([C@@H]2C[C@H]2N)cc1 (relative stereo) [Compound 6b] | Human recombinant MAO A (Homo sapiens (Human)) | + |

Data origin: patent US8765820B2
